Could you please report measured IC50 for the items listed next?
testTarget: DNA polymerase I, thermostable (Thermus aquaticus, UniProt P19821)
Sequence (P19821 whole entry): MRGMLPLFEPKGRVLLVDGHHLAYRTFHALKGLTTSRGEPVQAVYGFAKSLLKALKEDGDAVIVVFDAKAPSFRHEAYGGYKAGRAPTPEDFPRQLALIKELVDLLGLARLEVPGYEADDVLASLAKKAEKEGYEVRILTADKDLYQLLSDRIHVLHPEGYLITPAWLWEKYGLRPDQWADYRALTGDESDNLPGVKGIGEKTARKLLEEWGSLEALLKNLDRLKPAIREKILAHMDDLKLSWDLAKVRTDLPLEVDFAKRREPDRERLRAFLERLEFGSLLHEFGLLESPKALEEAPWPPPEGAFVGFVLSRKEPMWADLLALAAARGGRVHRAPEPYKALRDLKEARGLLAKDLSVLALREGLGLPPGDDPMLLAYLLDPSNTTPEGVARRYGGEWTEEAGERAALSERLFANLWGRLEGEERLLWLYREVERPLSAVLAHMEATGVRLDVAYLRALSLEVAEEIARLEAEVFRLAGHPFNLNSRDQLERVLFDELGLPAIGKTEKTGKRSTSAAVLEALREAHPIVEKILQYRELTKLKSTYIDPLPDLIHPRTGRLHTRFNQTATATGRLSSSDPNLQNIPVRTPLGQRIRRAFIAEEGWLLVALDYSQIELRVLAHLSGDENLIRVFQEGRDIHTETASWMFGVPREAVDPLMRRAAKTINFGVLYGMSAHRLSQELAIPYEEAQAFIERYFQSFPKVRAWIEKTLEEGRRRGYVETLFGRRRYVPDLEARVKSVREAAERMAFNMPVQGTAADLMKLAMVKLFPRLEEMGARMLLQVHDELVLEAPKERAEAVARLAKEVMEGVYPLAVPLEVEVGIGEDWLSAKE

**Q:** Please look up its IC50: "CCCCCCCC/C=C\CCCCCCCC(=O)Oc1cccc2c1C(=O)C=CC2=O"
**A:** > 100 µM

**Q:** Please look up its IC50: "CCCCCCCCCCCC(=O)Oc1cccc2c1C(=O)C=CC2=O"
**A:** > 100 µM

###

testTarget: UniProtKB Q9UGP5
Sequence (Q9UGP5 whole entry): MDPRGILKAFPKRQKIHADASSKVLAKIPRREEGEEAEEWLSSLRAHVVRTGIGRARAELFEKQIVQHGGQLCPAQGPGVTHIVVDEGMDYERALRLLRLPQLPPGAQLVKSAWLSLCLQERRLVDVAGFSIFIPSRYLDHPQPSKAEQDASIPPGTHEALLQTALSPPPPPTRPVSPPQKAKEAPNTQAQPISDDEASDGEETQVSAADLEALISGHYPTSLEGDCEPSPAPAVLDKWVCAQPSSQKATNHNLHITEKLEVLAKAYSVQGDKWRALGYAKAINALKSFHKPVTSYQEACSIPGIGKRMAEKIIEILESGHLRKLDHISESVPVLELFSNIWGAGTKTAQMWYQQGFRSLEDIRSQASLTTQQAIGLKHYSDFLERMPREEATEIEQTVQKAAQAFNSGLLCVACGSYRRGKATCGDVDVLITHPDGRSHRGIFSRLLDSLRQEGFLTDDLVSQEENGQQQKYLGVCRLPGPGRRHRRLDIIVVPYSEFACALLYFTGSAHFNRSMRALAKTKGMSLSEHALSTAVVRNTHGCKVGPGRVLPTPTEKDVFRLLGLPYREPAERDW
procedureText: Inhibition of recombinant His-tagged human DNA polymerase lambda using poly(dA)/oligo(dT)18 (A/T = 2/1) and dTTP as the DNA template-primer and nucleotide substrate at 10 uM after 60 mins
The source made the active and inactive calls. The rule behind the calls is not given here.
Result category, one only: 1 (yes) = active, 0 (no) = inactive

**Q:** What did this assay record as the result for CC/C=C\C/C=C\C/C=C\C/C=C\C/C=C\C/C=C\CCC(=O)O [DOCONEXENT] ?
**A:** 0 (no)

**Q:** What did this assay record as the result for O=C1C=CC(=O)c2c(O)cccc21 [JUGLONE] ?
**A:** 1 (yes)

**Q:** What did this assay record as the result for "CC(=O)Oc1cccc2c1C(=O)C=CC2=O" ?
**A:** 1 (yes)

**Q:** What did this assay record as the result for CCCCCCCC/C=C\CCCCCCCC(=O)O [OLEIC ACID] ?
**A:** 0 (no)

**Q:** What did this assay record as the result for CCCCC/C=C\C/C=C\CCCCCCCC(=O)O [LINOLEIC ACID] ?
**A:** 0 (no)

**Q:** What did this assay record as the result for CC/C=C\C/C=C\C/C=C\C/C=C\C/C=C\CCCC(=O)O [ICOSAPENT] ?
**A:** 0 (no)

**Q:** What did this assay record as the result for CCC(=O)O [PROPIONIC ACID] ?
**A:** 0 (no)

**Q:** What did this assay record as the result for CCCCCCCCCCCC(=O)O [DODECANOATE] ?
**A:** 0 (no)

**Q:** What did this assay record as the result for CCCCCCCCCCCCCCCCCC(=O)O [STEARIC ACID] ?
**A:** 0 (no)

**Q:** What did this assay record as the result for CC(=O)O [ACETIC ACID] ?
**A:** 0 (no)

Entry source: ChEMBL document CHEMBL1914406
